Origin of values: the supplement of paper PMC9112550

shrunken log2 fold change listing for selected sequences.
system: Escherichia coli TOP10; assay: shrunken log2 fold change of peptide-encoding DNA abundance (4.5 h post-induction vs induction); higher = less antimicrobial activity (less host growth inhibition); details: time post-induction: 4.5 h; library: site-saturation at positions 5, 18, 19, 20;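 note: peptides expressed intracellularly from a pBAD plasmid library in pooled LB shake-flask culture, induced with 0.3% L-arabinose, DNA abundance read by NGS, three biological replicates, DESeq2 with apeglm shrinkage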
A bare number is all that is needed in reply.

Here are 5 sequences together with their reported answers.
{"RESIDUE CODES": "RRIRERPPRLPRPRPRPRKDPRP", "NUMERIC RESULT": -0.245}
{"RESIDUE CODES": "RRIRNRPPRLPRPRPRPDASPRP", "NUMERIC RESULT": 0.14}
{"RESIDUE CODES": "RRIRHRPPRLPRPRPRPADRPRP", "NUMERIC RESULT": -0.0209}
{"RESIDUE CODES": "RRIRNRPPRLPRPRPRPVGTPRP", "NUMERIC RESULT": -0.073}
{"RESIDUE CODES": "RRIRVRPPRLPRPRPRPVHAPRP", "NUMERIC RESULT": -0.189}

For reference, reported shrunken log2 fold change for `RRIRARPPRLPRPRPRPYHIPRP` stands at -0.356

Record summary for `RRIRGRPPRLPRPRPRPRCPPRP` : reported shrunken log2 fold change = 1.4

So for `RRIRARPPRLPRPRPRPRRQPRP` , the logged shrunken log2 fold change turned out to be 0.453

In plain terms, `RRIRTRPPRLPRPRPRPLISPRP` has a documented shrunken log2 fold change of -0.145

The sequence listed as `RRIRIRPPRLPRPRPRPHMHPRP` has a reported shrunken log2 fold change of -1.05
